- TARGET_UNDER_TEST: Cytochrome P450 3A4 (Homo sapiens)
- Sequence (P08684 whole entry): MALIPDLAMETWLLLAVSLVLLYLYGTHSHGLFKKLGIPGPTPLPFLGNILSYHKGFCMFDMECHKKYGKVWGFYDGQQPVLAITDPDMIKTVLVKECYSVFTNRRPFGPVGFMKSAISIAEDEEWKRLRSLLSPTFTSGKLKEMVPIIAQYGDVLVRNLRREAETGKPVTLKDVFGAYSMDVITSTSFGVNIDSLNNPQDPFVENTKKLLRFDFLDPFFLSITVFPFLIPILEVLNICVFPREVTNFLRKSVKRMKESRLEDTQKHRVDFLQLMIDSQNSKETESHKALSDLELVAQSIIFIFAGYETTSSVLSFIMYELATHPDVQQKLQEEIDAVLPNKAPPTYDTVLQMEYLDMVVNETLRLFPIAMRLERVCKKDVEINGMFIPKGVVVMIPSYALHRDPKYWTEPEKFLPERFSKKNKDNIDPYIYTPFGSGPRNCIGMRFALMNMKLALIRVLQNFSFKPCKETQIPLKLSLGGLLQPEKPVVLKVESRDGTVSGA
- ASSAY_TEXT: Inhibition of recombinant human CYP3A4 expressed in baculovirus infected insect cells preincubated for 30 mins using fluorescent substrate
- Type: ADME
PROPERTY_MEASURED: IC50 (µM)

Below: 7 compounds and their reported IC50.
| COMPOUND | QUANTITATIVE_RESULT |
| --- | --- |
| CC(=O)N1C2CCC1CN(C(=O)CC1([C@H]3COC[C@@H](C4CC4)N3S(=O)(=O)c3ccc(Cl)cc3)CC1)C2 | 4.3 |
| C[C@H]1CN(C(C)(C)CO)CCN1C(=O)CC1([C@H]2COC[C@@H](C3CC3)N2S(=O)(=O)c2ccc(F)cc2)CC1 | 2.2 |
| O=C(CC1([C@H]2COC[C@@H](C3CC3)N2S(=O)(=O)c2ccc(F)cc2)CC1)N1CCC(N2CCCCC2)CC1 | 1.5 |
| O=C(CC1([C@H]2CO[C@H]3CCC[C@H]3N2S(=O)(=O)c2ccc(Cl)cc2)CC1)N1CC[C@@H](CO)C1 | 30 |
| O=C(CC1([C@H]2COC[C@@H](C3CC3)N2S(=O)(=O)c2ccc(Cl)cc2)CC1)N1C2CCC1CC(N1CCCCC1)C2 (some centres undefined) | 2 |
| O=C(C(O)C1([C@H]2COC[C@@H](C3CC3)N2S(=O)(=O)c2ccc(Cl)cc2)CC1)N1CC2CCC(C1)N2 (some centres undefined) | 9 |
| O=C(CC1([C@H]2COC[C@@H](C3CC3)N2S(=O)(=O)c2ccc(F)cc2)CC1)N1CCN(CCO)CC1 | 6.9 |

1. O=C(CC1([C@H]2CO[C@H]3CCC[C@H]3N2S(=O)(=O)c2ccc(Cl)cc2)CC1)N1CCC(N2CCCCC2)CC1
2. CC(=O)N1CCN(C(=O)CC2([C@H]3COC[C@@H](C4CC4)N3S(=O)(=O)c3ccc(F)cc3)CC2)CC1
3. CC(C)(CO)N1CCN(C(=O)CC2([C@H]3COC[C@@H](C4CC4)N3S(=O)(=O)c3ccc(Cl)cc3)CC2)CC1
4. O=C(CC1([C@H]2CO[C@H]3CCC[C@H]3N2S(=O)(=O)c2ccc(Cl)cc2)CC1)N1CCC(CO)CC1
Q: Order the records by IC50, with each subsequent value no larger than the one before. List labels; respect the requested ordering.
A: 4, 2, 1, 3

###

- ASSAY_TEXT: Inhibition of gamma-secretase in HEK293 cells expressing human APP Swedish/London mutant assessed as reduction in amyloid beta 40 level after 5 hrs by sandwich immunoassay
- Assay type: cell-based
- CONDITION_CONTEXT: HEK293, 5 h
PROPERTY_MEASURED: IC50 (nM)

Below: 3 compounds and their reported IC50.
| COMPOUND | VALUE_UNIT | IC50 |
| --- | --- | --- |
| O=C(C(O)C1([C@H]2COC[C@@H](C3CC3)N2S(=O)(=O)c2ccc(Cl)cc2)CC1)N1C2CCC1CC(N1CCCCC1)C2 (some centres not stated) | nM | 24 |
| O=C(CC1([C@H]2CO[C@H]3CCC[C@H]3N2S(=O)(=O)c2ccc(Cl)cc2)CC1)N1CCC(N2CCCCC2)CC1 | nM | 1.7 |
| O=C(CC1([C@H]2COC[C@@H](C3CC3)N2S(=O)(=O)c2ccc(Cl)cc2)CC1)N1C2CCC1CC(N1CCCCC1)C2 (some centres not stated) | nM | 12 |

P. O=C(CC1([C@H]2CO[C@H]3CCC[C@H]3N2S(=O)(=O)c2ccc(Cl)cc2)CC1)N1CC[C@@H](O)C1
Q. O=C(CC1([C@H]2COC[C@@H](C3CC3)N2S(=O)(=O)c2ccc(F)cc2)CC1)N1CCN(CCO)CC1
Q: Hey, which is lower on measured IC50, P or Q ? Respond using the label that marks the chosen record.
A: P
(P: 16 nM, Q: 32 nM)
